system: calpain II from rabbit
testSummary: Calpain II inhibition, Suc-Leu-Tyr-AMC hydrolysis (KI)
Format: biochemical
settings: Table 1, Z-Leu--AA--CONHR; read-out: KI Cal II
One threshold, 80 nM, splits the recorded Ki values: lower ones are 1.0, equal or higher ones are 0.0.

Please review the entries below; each comes with its answer.
CCC(NC(=O)C(CC(C)C)NC(=O)OCc1ccccc1)C(=O)C(=O)NCc1ccccn1 (stereo not drawn) [Z-Leu-Abu-CONH-CH2 -2-pyridyl, Z-Leu-Abu-CONH--CH2 -2-Pyridyl]: 1.0
CC[C@H](NC(=O)[C@H](CC(C)C)NC(=O)OCc1ccccc1)C(=O)C(=O)NCc1cc(OC)cc(OC)c1 [Z-Leu-Abu-CONH-CH2 C6 H3 (3,5-(OCH3)2), Z-Leu-Abu-CONH--CH2 C6 H3 (3,5-(OCH3)2]: 1.0
CCC(NC(=O)C(CC(C)C)NC(=O)OCc1ccccc1)C(=O)C(=O)NCc1ccncc1 (stereo not drawn) [Z-Leu-Abu-CONH-CH2 -4-pyridyl, Z-Leu-Abu-CONH--CH2 -4-Pyridyl]: 0.0
CCC(NC(=O)C(CC(C)C)NC(=O)OCc1ccccc1)C(=O)C(=O)NCCc1c[nH]c2ccccc12 (stereo not drawn) [Z-Leu-Abu-CONH-(CH2)2 -3-indolyl, Z-Leu-Abu-CONH--(CH2)2 -3-Indolyl]: 1.0
CCC(NC(=O)C(CC(C)C)NC(=O)OCc1ccccc1)C(=O)C(=O)NCCCN1CCOCC1 (stereo not drawn) [Z-Leu-Abu-CONH-(CH2)3 -4-morpholinyl, Z-Leu-Abu-CONH--(CH2)3 -4-Morpholinyl]: 1.0
CCC(NC(=O)C(CC(C)C)NC(=O)OCc1ccccc1)C(=O)C(=O)NCCc1ccccn1 (stereo not drawn) [Z-Leu-Abu-CONH-(CH2)2 -2-pyridyl, Z-Leu-Abu-CONH--(CH2)2 -2-Pyridyl]: 0.0
CCC(NC(=O)C(CC(C)C)NC(=O)OCc1ccccc1)C(=O)C(=O)NCCc1ccc(OC)cc1 (stereo not drawn) [Z-Leu-Abu-CONH-(CH2)2 C6 H4 (4-OCH3), Z-Leu-Abu-CONH--(CH2)2 C6 H4 (4-OCH3)]: 1.0
CCC(NC(=O)C(CC(C)C)NC(=O)OCc1ccccc1)C(=O)C(=O)NCc1ccco1 (stereo not drawn) [Z-Leu-Abu-CONH-CH2 -2-furyl, Z-Leu-Abu-CONH--CH2 -2-Furyl]: 1.0

Prompt: State whether 80 nM exceeds Ki recorded for CCC(NC(=O)C(CC(C)C)NC(=O)OCc1ccccc1)C(=O)C(=O)NCCCN1CCCC1=O (centres unmarked) .
Response: 0.0

Prompt: State whether 80 nM exceeds Ki recorded for CC[C@H](NC(=O)[C@H](CC(C)C)NC(=O)OCc1ccccc1)C(=O)C(=O)NCCCCCO [Z-Leu-Abu-CONH-(CH2)5 OH, Z-Leu-Abu-CONH--(CH2)5 OH] .
Response: 1.0

Prompt: State whether 80 nM exceeds Ki recorded for CCC(NC(=O)[C@H](CC(C)C)NC(=O)OCc1ccccc1)C(=O)C(=O)NCCc1cccn1C (some centres unmarked) .
Response: 1.0

* * *

system: human leukocyte elastase (HLE) (Homo sapiens)
Sequence (P08246 30-267): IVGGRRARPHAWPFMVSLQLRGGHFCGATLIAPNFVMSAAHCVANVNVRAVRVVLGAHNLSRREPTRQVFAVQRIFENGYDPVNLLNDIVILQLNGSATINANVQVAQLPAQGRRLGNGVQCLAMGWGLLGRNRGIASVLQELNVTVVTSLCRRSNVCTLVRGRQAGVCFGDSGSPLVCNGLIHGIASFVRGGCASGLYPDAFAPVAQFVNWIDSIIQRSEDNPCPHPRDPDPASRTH
propertyLabel: IC50 (µM)
Supply the numeric figure in µM, leaving out any unit text.

CCC(NC(=O)C(CC(C)C)NC(=O)OCc1ccccc1)C(=O)C(=O)NCC(O)c1cccc(Oc2cccc(C(F)(F)F)c2)c1 (stereo not drawn): 30
CCCCNC(=O)C(=O)C(Cc1ccccc1)NC(=O)C(CC(C)C)NC(=O)OCc1ccccc1 (stereo not drawn): 16
CCCCCCCCCNC(=O)C(=O)C(CC)NC(=O)C(CC(C)C)NC(=O)OCc1ccccc1 (stereo not drawn): 78

Prompt: // fetch IC50 given entry CCC(NC(=O)C(CC(C)C)NC(=O)OCc1ccccc1)C(=O)C(=O)NCC(O)c1cccc(Oc2ccccc2)c1 (stereo not drawn)
Response: 45

Prompt: // fetch IC50 given entry CC(C)CC(NC(=O)OCc1ccccc1)C(=O)NC(Cc1ccccc1)C(=O)C(=O)NCCc1ccccc1 (stereo not drawn)
Response: 24

Prompt: // fetch IC50 given entry CCC(NC(=O)C(CC(C)C)NC(=O)OCc1ccccc1)C(=O)C(=O)NCc1ccco1 (stereo not drawn)
Response: 38

Prompt: // fetch IC50 given entry CCC(NC(=O)C(CC(C)C)NC(=O)OCc1ccccc1)C(=O)C(=O)NCC(C)C (stereo not drawn)
Response: 78

Prompt: // fetch IC50 given entry CC(C)CC(NC(=O)OCc1ccccc1)C(=O)NC(Cc1ccccc1)C(=O)C(=O)NCc1ccccc1 (stereo not drawn)
Response: 40

Prompt: // fetch IC50 given entry CCC(NC(=O)C(CC(C)C)NC(=O)OCc1ccccc1)C(=O)C(=O)NCCc1c[nH]c2ccccc12 (stereo not drawn)
Response: 48

Prompt: // fetch IC50 given entry CCC(NC(=O)C(CC(C)C)NC(=O)OCc1ccccc1)C(=O)C(=O)NCc1nc2c(c(=O)n(C)c(=O)n2C)n1C (stereo not drawn)
Response: 156

* * *

system: Calpain I from human erythrocytes (Homo sapiens, UniProt P07384)
Construct: Calpain I was purified from human erythrocytes; from tissue; host or cells: human erythrocytes
Sequence (P07384 whole entry): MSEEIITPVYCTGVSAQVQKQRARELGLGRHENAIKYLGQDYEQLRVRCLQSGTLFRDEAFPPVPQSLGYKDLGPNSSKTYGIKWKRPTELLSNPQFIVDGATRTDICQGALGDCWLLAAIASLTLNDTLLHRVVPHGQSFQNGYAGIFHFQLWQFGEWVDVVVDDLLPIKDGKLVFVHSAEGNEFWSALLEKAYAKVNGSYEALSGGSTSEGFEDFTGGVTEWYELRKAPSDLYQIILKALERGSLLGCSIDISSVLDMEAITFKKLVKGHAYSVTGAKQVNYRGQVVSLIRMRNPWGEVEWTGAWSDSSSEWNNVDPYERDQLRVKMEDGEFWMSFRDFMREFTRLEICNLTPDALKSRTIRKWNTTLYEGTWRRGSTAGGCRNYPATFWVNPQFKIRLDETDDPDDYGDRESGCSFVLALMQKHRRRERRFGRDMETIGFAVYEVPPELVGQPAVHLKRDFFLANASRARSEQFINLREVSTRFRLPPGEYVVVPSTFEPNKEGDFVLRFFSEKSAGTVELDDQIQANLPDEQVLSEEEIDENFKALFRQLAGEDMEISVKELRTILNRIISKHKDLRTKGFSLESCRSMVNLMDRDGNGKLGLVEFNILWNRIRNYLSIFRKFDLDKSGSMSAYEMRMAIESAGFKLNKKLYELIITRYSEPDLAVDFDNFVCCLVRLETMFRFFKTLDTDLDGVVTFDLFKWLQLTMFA
Sequence (P04632 whole entry partner): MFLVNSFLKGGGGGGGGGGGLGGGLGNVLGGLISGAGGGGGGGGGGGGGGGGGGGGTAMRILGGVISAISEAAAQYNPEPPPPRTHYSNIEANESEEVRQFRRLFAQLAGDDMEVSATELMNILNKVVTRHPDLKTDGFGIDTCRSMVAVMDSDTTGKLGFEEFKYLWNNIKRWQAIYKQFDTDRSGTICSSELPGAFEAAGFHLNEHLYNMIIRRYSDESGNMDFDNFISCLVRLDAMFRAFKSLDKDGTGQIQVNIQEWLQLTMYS
testSummary: Calpain I inhibition, Suc-Leu-Tyr-AMC hydrolysis (KI)
Format: biochemical
settings: Table 2, Z-Leu--AA--CONH--CH2 CH(OH)-R; read-out: KI Cal I
Recorded Ki by entry
Supply the numeric figure in nM, leaving out any unit text.

Below, each entry is followed by its recorded Ki result.
CC(C)CC(NC(=O)OCc1ccccc1)C(=O)NC(Cc1ccccc1)C(=O)C(=O)NCC(O)c1c(F)c(F)c(F)c(F)c1F (stereo not shown): 700
CCC(NC(=O)C(CC(C)C)NC(=O)OCc1ccccc1)C(=O)C(=O)NCC(O)c1ccc(OC)cc1 (stereo not shown): 240
CC(C)C[C@H](NC(=O)OCc1ccccc1)C(=O)N[C@@H](Cc1ccccc1)C(=O)C(=O)NCC(O)c1cccc(Oc2cccc(C(F)(F)F)c2)c1 (stereo partly shown): 180
CCC(NC(=O)C(CC(C)C)NC(=O)OCc1ccccc1)C(=O)C(=O)NCC(O)c1cccc(Oc2cccc(C(F)(F)F)c2)c1 (stereo not shown): 70
CCC(NC(=O)C(CC(C)C)NC(=O)OCc1ccccc1)C(=O)C(=O)NCC(O)c1ccc(Oc2ccccc2)cc1 (stereo not shown): 100
CCC(NC(=O)C(CC(C)C)NC(=O)OCc1ccccc1)C(=O)C(=O)NCC(O)c1cccc(C(F)(F)F)c1 (stereo not shown): 350

Prompt: // fetch Ki given entry CCC(NC(=O)C(CC(C)C)NC(=O)OCc1ccccc1)C(=O)C(=O)NCC(O)c1cccc(Oc2ccccc2)c1 (stereo not shown)
Response: 900

* * *

system: Human leukocyte cathepsin G (Homo sapiens)
Sequence (P08311 21-255): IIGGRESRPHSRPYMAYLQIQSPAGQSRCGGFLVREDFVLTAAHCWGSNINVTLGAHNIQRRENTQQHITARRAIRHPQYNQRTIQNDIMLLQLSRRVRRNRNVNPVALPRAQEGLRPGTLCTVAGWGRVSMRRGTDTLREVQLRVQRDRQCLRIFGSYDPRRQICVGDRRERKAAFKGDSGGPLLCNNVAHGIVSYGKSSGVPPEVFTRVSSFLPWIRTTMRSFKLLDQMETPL
propertyLabel: pKi
Please keep in mind that pKi is minus log10 of the molar concentration; only the number is needed.

Prompt: Specify the recorded pKi for CCCCNC(=O)C(=O)C(Cc1ccccc1)NC(=O)C(CC(C)C)NC(=O)OCc1ccccc1 (stereo not drawn) [Z-Leu-Phe-CONH-n-Bu] , system: Human leukocyte cathepsin G (Homo sapiens).
Response: 5.31

* * *

system: cathepsin B (Homo sapiens)
Construct: purchased Sigma
testSummary: Cathepsin B inhibition (KI)
Assay type: biochemical
settings: Table 3, M1 CO-Leu--AA--CONH-R; read-out: KI Cat B
Recorded pKi by entry
Please keep in mind that pKi is minus log10 of the molar concentration; only the number is needed.

CC(C)CC(NC(=O)C(c1ccccc1)c1ccccc1)C(=O)NC(Cc1ccccc1)C(=O)C(=O)NCCCN1CCOCC1 (stereo not drawn): 5.42
CC(C)CC(NC(=O)C(c1ccccc1)c1ccccc1)C(=O)NC(Cc1ccccc1)C(=O)C(=O)NCc1ccccn1 (stereo not drawn) [Ph2 CH-CO-Leu-Phe-CONH-CH2 -2-pyridyl, Ph2 CHCO-Leu-Phe-CONH--CH2 -2-Pyridyl]: 5.66

Consider the record given below.
Prompt: // fetch pKi given entry CCC(NC(=O)C(CC(C)C)NC(=O)C(c1ccccc1)c1ccccc1)C(=O)C(=O)NCCCN1CCOCC1 (stereo not drawn)
Response: 5.64

* * *

Recorded pKi by entry
system: Calpain I from human erythrocytes (Homo sapiens)
Construct: Calpain I was purified from human erythrocytes; from tissue; host or cells: human erythrocytes
testSummary: Calpain I inhibition, Suc-Leu-Tyr-AMC hydrolysis (KI)
Type: biochemical
settings: Table 3, M1 CO-Leu--AA--CONH-R; read-out: KI Cal I
Please keep in mind that pKi is minus log10 of the molar concentration; only the number is needed.

Below, each entry is followed by its recorded pKi result.
CC(C)CC(NC(=O)C(c1ccccc1)c1ccccc1)C(=O)NC(Cc1ccccc1)C(=O)C(=O)NCC(O)c1ccccc1 (stereo not drawn) [Ph2 CH-CO-Leu-Phe-CONH-CH2 CH(OH)Ph, Ph2 CHCO-Leu-Phe-CONH--CH2 CH(OH)Ph]: 5.00
CCNC(=O)C(=O)C(CC)NC(=O)C(CC(C)C)NC(=O)c1cnccn1 (stereo not drawn) [2-pyrazinyl-CO-Leu-Abu-CONH-Et, 2-Pyrazinyl-CO-Leu-Abu-CONHEt]: 6.52

Consider the record given below.
Prompt: // fetch pKi given entry CCNC(=O)C(=O)C(CC)NC(=O)C(CC(C)C)NC(=O)N1CCOCC1 (stereo not drawn) [4-morpholinyl-CO-Leu-Abu-CONH-Et, 4-Morpholinyl-CO-Leu-Abu-CONHEt]
Response: 5.10
